- Target entity: E. coli DXP synthase (DXPS) (Escherichia coli)
- Construct: made in house
- Sequence (P77488 whole entry): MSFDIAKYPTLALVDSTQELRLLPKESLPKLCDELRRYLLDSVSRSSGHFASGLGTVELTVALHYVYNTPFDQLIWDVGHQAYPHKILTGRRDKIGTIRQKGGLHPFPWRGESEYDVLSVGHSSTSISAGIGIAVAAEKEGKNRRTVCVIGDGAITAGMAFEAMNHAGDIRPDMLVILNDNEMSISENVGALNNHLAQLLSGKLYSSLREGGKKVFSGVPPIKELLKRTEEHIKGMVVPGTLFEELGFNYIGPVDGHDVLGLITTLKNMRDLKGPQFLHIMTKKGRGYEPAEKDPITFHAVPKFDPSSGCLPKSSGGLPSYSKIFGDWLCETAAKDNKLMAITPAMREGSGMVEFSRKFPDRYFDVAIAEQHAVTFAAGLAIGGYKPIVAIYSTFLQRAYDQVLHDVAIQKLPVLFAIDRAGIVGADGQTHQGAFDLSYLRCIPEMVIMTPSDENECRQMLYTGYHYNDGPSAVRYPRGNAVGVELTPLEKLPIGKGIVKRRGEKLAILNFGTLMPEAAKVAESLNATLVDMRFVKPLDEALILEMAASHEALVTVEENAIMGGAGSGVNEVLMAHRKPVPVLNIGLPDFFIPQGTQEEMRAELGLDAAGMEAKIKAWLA
- Type: biochemical
- Settings: acceptor substrate turnover; 10-20 mM pyruvate, pH 8.0, 10% DMSO, 37° C.; average ± SEM
# if measured kcat < 0.02 s⁻¹: Yes  # else: No

>>> qualitative_label("COc1cccc(COP(=O)([O-])C(C)=O)c1.[Li+]")
"No"
>>> qualitative_label("Cc1nn(C(C)C)c(C)c1N=O")
"No"
>>> qualitative_label("CC(=O)P(=O)([O-])OCCc1cccc2ccccc12.[Li+]")
"Yes"
>>> qualitative_label("COc1ccc(CCOP(=O)([O-])C(C)=O)cc1.[Li+]")
"Yes"

kcat under 0.02 s⁻¹? Item: O=C[C@H](O)COP(=O)(O)O [D-GAP, D-glyceraldehyde 3-phosphate, reference compound] No

kcat under 0.02 s⁻¹? Item: COc1ccc2ccc(O)c(N=O)c2c1 No

kcat under 0.02 s⁻¹? Item: O=Nc1c(O)ccc2cc(Br)ccc12 No

These data points were gathered from patent US9930893B2.
